Data credit: the RNAGym collection of RNA variant scans (doi:10.1002/anie.201605470)

B1: Osa-1-4 twister ribozyme (parent)
chain: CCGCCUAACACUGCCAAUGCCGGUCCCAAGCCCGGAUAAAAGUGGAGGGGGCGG

Variants of: B1
protocolDetails: self-cleavage, relative activity (ratio to wild type); higher = more cleavage; co-transcriptional
Consider the reported self-cleavage of an entry and match it to a band in bottom range (below 0.06), center range (0.06 to below 0.1), top range (0.1 or more)

{"columns": ["mutationKey", "classAssignment"],
 "data": [
  ["A39U C21A", "top range"],
  ["A40U G23A", "top range"],
  ["C32U G22U", "center range"],
  ["C11A G19C", "bottom range"],
  ["C32A G44U", "center range"],
  ["G35U U12A", "top range"],
  ["C20U G13C", "bottom range"],
  ["G47A", "top range"],
  ["G47A G48U", "bottom range"]
]}
